# assayedTarget: hαvβ1 (Homo sapiens, UniProt P05556+P06756)
# Construct: The full extracellular domains for all α and β integrin subunits; (GGGS)3 linker (C); acidic coiled-coil with cysteine (C); GG-Avitag (C); hexa-histidine tag (C); basic coiled-coil with cysteine (C); made in house; host or cells: Expi293 cells
# Sequence (P06756 31-992 limits assumed): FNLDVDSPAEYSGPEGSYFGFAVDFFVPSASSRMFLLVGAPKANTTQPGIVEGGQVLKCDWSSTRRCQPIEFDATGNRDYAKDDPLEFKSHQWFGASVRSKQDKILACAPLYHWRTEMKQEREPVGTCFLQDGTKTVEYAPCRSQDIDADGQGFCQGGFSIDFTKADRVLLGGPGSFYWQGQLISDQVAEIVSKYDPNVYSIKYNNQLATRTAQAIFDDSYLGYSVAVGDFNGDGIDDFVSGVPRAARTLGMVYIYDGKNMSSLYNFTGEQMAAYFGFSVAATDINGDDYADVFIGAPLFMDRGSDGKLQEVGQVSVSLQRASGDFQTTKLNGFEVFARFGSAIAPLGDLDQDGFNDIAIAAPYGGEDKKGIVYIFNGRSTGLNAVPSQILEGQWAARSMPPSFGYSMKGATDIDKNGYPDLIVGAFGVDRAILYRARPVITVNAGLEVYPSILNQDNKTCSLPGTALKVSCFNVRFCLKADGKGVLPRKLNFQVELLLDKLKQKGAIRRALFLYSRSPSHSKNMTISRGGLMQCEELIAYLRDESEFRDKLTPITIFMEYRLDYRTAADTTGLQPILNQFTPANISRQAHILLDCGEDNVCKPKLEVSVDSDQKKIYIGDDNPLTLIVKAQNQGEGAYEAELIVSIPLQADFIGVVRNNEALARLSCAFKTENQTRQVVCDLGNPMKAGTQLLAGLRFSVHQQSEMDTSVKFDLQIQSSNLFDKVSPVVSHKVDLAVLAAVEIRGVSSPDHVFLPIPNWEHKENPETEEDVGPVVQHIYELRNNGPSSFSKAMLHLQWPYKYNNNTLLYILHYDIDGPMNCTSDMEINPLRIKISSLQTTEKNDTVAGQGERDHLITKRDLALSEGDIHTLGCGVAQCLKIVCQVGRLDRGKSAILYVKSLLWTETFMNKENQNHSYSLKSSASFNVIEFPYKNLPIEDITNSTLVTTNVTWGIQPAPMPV
# Sequence (P05556 21-728 limits assumed): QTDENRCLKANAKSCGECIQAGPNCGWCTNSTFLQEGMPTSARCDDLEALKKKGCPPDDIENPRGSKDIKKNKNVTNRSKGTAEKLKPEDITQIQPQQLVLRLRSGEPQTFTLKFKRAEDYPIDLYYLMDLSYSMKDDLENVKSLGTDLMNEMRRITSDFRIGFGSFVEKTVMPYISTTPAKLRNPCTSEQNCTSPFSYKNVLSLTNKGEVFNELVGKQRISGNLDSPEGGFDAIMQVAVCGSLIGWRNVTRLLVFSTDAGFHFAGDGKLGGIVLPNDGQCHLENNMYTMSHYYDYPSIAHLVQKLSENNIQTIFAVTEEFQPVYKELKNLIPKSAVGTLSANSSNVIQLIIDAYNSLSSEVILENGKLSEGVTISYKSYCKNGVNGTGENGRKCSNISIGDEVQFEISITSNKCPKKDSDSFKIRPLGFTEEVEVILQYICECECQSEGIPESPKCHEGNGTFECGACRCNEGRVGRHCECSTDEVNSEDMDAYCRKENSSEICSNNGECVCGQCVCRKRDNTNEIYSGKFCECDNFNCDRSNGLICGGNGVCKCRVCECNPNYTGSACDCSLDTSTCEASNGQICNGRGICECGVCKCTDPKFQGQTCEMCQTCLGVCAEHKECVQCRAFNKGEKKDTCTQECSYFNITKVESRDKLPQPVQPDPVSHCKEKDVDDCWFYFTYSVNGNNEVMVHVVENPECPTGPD
# assayMethodText: Human AlphaLISA integrin-ligand blocking assay (fibronectin)
# Assay type: biochemical
# studyConditions: FIG. 3D, curve-fitted; read-out: IC50 against human αvβ1, AlphaLISA

{"smilesString": "COc1ccc([C@H](CC(=O)O)N2CCN(CCCc3ccc4c(n3)NCCC4)C2=O)cn1", "unitDescriptor": "nM", "IC50": 0.46}
